- target_entity: Wee1-like protein kinase (Homo sapiens, UniProt P30291)
- Sequence (P30291 whole entry): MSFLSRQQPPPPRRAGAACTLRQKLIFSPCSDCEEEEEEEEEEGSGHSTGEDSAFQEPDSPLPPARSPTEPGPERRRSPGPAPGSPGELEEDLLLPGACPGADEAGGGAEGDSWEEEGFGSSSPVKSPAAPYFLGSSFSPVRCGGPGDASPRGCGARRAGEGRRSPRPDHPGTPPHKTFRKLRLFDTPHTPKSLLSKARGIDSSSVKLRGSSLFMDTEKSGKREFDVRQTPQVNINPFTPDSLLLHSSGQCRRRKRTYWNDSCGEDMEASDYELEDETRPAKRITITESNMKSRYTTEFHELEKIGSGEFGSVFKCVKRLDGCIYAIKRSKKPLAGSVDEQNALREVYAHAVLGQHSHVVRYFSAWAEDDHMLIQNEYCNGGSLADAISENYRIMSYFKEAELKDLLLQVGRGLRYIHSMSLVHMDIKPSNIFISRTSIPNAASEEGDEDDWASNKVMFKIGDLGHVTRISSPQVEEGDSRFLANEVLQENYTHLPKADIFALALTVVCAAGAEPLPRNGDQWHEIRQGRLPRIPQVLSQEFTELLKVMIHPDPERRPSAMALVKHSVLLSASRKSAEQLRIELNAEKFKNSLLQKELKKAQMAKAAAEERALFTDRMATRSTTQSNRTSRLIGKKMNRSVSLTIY
- protocol: Inhibition of WEE1 (unknown origin)
readout_kind: IC50 (nM)
Enter your answer as a number in nM; do not include the unit.

Please report IC50 with Wee1-like protein kinase (Homo sapiens, UniProt P30291) for item Cc1ccc(O)c(C)c1-n1nc(-c2nccs2)c(C(N)=O)c1N . 500

----------
- target_entity: UniProt:Q99640
- protocol: Inhibition of PKMYT1 (unknown origin) extracted from insect cells by TR-FRET analysis
- Assay type: cell-free, Insect cell
readout_kind: pIC50
Lab note: report pIC50 as minus log10 of the concentration in molar units, number only.

>  <compound>
CCOc1cc2ncc(C#N)c(Nc3ccc(F)c(Cl)c3)c2cc1NC(=O)/C=C\CN(C)C

>  <pIC50>
5.54

$$$$

Below: the item to evaluate.
Please list pIC50 recorded for the compound COc1cc2ncnc(Nc3cccc(Cl)c3)c2cc1OC [TYRPHOSTIN AG-1478] 5.14

----------
# Lookup of reported pIC50 keyed by entry
- target_entity: Membrane-associated tyrosine- and threonine-specific cdc2-inhibitory kinase (Homo sapiens, UniProt Q99640)
- Sequence (Q99640 whole entry): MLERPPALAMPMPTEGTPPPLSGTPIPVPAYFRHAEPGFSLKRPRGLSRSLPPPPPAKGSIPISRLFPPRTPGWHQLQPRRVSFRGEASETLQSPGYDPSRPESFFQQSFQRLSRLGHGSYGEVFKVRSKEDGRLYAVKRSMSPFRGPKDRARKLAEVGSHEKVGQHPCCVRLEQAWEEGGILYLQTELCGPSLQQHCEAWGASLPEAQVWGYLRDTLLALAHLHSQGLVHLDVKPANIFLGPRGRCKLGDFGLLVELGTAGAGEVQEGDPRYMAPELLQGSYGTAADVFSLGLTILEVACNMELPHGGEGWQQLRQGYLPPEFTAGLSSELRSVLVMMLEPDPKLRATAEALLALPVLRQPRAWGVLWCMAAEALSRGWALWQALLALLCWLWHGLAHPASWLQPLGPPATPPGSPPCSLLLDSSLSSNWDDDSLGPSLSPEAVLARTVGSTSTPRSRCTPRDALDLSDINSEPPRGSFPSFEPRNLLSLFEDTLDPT
- protocol: Inhibition of PKMYT1 (unknown origin)
pIC50: −log10 of the molar value.

Guide cases for pIC50, answers given:
>  <molecule>
Cc1ncc(-c2[nH]c3ncc(-c4c(C)ccc(O)c4C)nc3c2Cl)cn1

>  <pIC50>
≥ 8.00

$$$$
>  <molecule>
COc1ccnc2c(-c3c(C)ccc(O)c3C)c(N)c(C(N)=O)cc12

>  <pIC50>
> 7.30

$$$$
>  <molecule>
Cc1ccc(-c2cc3c(Cl)c(-c4c(C)ccc(O)c4C)cnc3[nH]2)cn1

>  <pIC50>
≥ 8.00

$$$$

Please list pIC50 recorded for the molecule Cc1ccc(O)c(C)c1-c1cnc2[nH]c(-c3ccc(N4CCN(C)CC4)nc3C)nc2c1 6.30

Please list pIC50 recorded for the molecule Cc1c(O)cccc1-c1c(N)c(C(N)=O)cc2nccc(C#N)c12 > 7.30

Please list pIC50 recorded for the molecule Cc1c(O)cccc1-c1c(N)c(C(N)=O)nc2cccc(C#N)c12 > 7.30

Please list pIC50 recorded for the molecule CC1=CC2C(C(N)=O)=C(N)C(c3c(C)ccc(O)c3C)N2N=C1 (stereo not given) > 8.00

Please list pIC50 recorded for the molecule Cc1ccc(O)c(C)c1-n1c(N)c(C(N)=O)c2cc(NC(N)=O)cnc21 > 7.70

Please list pIC50 recorded for the molecule Cc1ccc(O)c(C)c1C1C(N)=C(C(N)=O)C2C=C(C(C)C)C=NN21 (stereo not given) > 8.00

----------
Form: system (Wee1-like protein kinase (Homo sapiens, UniProt P30291)), quantity (pKd), values below.
pKd: −log10 of the molar value.

>  <item_smiles>
COc1ccc(Nc2ncc3cc(-c4c(C)ccc(O)c4C)c(=O)n(C)c3n2)nc1

>  <pKd>
< 6.30

$$$$
>  <item_smiles>
CN(C)C(=O)NCc1cc(Nc2ncc3cc(-c4c(Cl)cccc4Cl)c(=O)n(C)c3n2)nnc1OCCN1CCS(=O)(=O)CC1

>  <pKd>
< 6.30

$$$$

Below: the item to evaluate.
Please list pKd recorded for the compound CCn1ccc(Oc2ccc(Nc3ncc4cc(-c5c(Cl)cccc5Cl)c(=O)n(C)c4n3)nc2)n1 < 6.30

The measurements presented in this section are drawn from ChEMBL document CHEMBL6078629.
